Source listed as patent US8791132B2.

Molecular target: rat adrenergic α1B receptor (Rattus norvegicus)
Construct: rat adrenergic α1B receptor obtained from Wistar Rat liver; from tissue; host or cells: Wistar rat liver
Sequence (P15823 1-515): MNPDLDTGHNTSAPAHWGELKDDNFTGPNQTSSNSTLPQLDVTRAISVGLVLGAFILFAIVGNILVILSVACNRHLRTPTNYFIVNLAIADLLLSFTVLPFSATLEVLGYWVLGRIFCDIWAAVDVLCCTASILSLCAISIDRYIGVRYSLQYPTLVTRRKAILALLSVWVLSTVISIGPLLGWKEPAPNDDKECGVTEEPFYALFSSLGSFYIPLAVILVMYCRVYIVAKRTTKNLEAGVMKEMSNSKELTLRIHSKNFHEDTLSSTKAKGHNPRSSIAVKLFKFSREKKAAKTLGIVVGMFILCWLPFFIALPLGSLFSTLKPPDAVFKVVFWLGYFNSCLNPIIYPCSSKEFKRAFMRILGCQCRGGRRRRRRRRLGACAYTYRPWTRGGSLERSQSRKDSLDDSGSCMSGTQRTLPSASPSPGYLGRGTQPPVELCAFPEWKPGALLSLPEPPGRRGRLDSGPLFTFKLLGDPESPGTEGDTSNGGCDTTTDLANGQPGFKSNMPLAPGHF
Experiment: Radioligand binding, adrenergic α1B ([3H]Prazosin)
Details: compound at 0.1 μM; [3H]Prazosin; repeat datapoints each shown; 0.1 µM
endpoint: Percentage inhibition of ligand binding, Adrenergic α1B (0.1 μM) (%)

Some molecules with known Percentage inhibition of ligand binding, Adrenergic α1B (0.1 μM) results, for comparison:
>>> value("Cc1cnc2c(c1)c1c(n2CCc2ccc(C)nc2)CCN2CCCCC12 (single isomer, unassigned) [IV-8b]")
5
>>> value("Cc1cnc2c(c1)c1c(n2CC(C)(O)c2ccc(C)nc2)CCN2CCCC12 (single isomer, unassigned) [148c]")
6
>>> value("Cc1ccc2c(c1)c1c(n2CC(O)c2ccc(F)cc2F)CCN(C)CC1 (single isomer, unassigned) [172a]")
54
>>> value("Cc1cnc2c(c1)c1c(n2CC(N)c2ccc(C#N)cc2)CCNC1 (single isomer, unassigned) [160a]")
35
>>> value("Cc1ccc2c(c1)c1c(n2CC(C)(O)c2cccnc2)CCN2CCCC12 (single isomer, unassigned) [II-127b]")
65

A. CC(O)(Cn1c2c(c3cc(Cl)cnc31)C1CCCN1CC2)c1cccnc1 (single isomer, unassigned) [IV-210b]
B. Cc1cnc2c(c1)c1c(n2CC(C)(O)c2ccc(F)cc2)CCN2CCCC12 (single isomer, unassigned) [II-149b]
C. Cc1ccc2c(c1)c1c(n2CC(C)(O)c2cccnc2)CCN(C)C1C (single isomer, unassigned) [II-152c]
D. Cc1cnc2c(c1)c1c(n2CC(C)(O)c2ccc(C(F)(F)F)nc2)CCN(C)C1 (single isomer, unassigned) [II-108b]
E. Cc1cnc2c(c1)c1c(n2CC(C)(O)c2ccc(F)cc2)CCN2CCCC12 (single isomer, unassigned) [II-149d]
Query block: Arrange items by their Percentage inhibition of ligand binding, Adrenergic α1B (0.1 μM) values in increasing order. Returns: the labels arranged in the requested order.
Result block: D, C, A, E, B

====

Target: human recombinant adrenergic α2B receptor (Homo sapiens, UniProt P18089)
Construct: expressed in transfected cells; host or cells: CHO-K1
Sequence (P18089 whole entry): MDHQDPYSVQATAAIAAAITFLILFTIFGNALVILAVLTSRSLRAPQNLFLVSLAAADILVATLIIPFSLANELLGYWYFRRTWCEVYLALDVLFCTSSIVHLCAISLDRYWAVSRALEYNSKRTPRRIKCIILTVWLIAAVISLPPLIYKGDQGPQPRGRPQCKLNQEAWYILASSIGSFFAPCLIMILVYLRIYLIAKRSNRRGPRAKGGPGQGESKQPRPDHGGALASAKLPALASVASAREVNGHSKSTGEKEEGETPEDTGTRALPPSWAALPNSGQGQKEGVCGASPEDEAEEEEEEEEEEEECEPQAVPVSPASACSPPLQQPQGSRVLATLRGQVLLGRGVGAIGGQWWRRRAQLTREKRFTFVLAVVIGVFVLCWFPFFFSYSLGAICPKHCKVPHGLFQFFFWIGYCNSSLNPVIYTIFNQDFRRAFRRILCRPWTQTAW
Assay: Radioligand binding, adrenergic α2B ([3H]Rauwolscine)
Settings: read-out: Percentage inhibition of ligand binding, Adrenergic α2B (0.03 μM), compound at 0.03 μM; [3H]Rauwolscine; repeat datapoints each shown
endpoint: inhibition at 0.03 µM (%)

A. Cc1ccc2c(c1)c1c(n2CC(C(N)=O)c2ccncc2)CCN(C)C1 (stereo not drawn)
B. Cc1ccc2c(c1)c1c(n2CC(C)(O)c2ccc(C)nc2)CN(C)CC1 (stereo not drawn) [196b]
C. Cc1cnc2c(c1)c1c(n2CCc2ccncc2)CCN(C)C1
Query block: Order these compounds (above) by their inhibition at 0.03 µM, from the smallest value upward. Returns: the labels arranged in the requested order.
Result block: B, A, C
